# System: OV90
# assay-remarks: Primary qHTS to identify gynecologic anti-cancer compounds using libraries of approved drugs and bioactive compounds (AID 1345084); note: nearly all actives have a fitted effect of over 55% in size
# experimental-conditions: Gynecologic cancer cell panel viability, ATPlite luminescence, 48 h; series mostly up to 57.5 µM
Inconclusive results are not listed. Calls of active or inactive are those of the source. Calls come from the whole dose curve; as a rule, active = well fitted cell-killing curve with a large enough effect; inconclusive = small, poorly fitted or top-dose-only effect, or effect the other way; inactive = flat fitted curve, though single readings scatter.
Your reply should match one of these outcome classes. active, inactive

Please review the following examples before continuing.
NC(=O)N1c2ccccc2CC(=O)c2ccccc21 = inactive
COc1cc2c(Nc3ccc(Br)cc3F)ncnc2cc1OCC1CCN(C)CC1 = inactive
CC1(C)[C@H](C(=O)O)N2C(=O)C[C@H]2S1(=O)=O = inactive
COc1ccc(-c2ccc3cc(C(=O)O)ccc3c2)cc1C12CC3CC(CC(C3)C1)C2 = inactive
CO[C@@H]1[C@@H](OC(N)=O)[C@@H](O)[C@H](Oc2ccc3c(O)c(NC(=O)c4ccc(O)c(CC=C(C)C)c4)c(=O)oc3c2C)OC1(C)C = inactive

GET /call?item= CO[C@@]12[C@H](COC(N)=O)C3=C(C(=O)C(C)=C(N)C3=O)N1C[C@@H]1N[C@@H]12 returns the recorded outcome of this test.
active

GET /call?item= CCCN[C@H]1CCc2nc(N)sc2C1 returns the recorded outcome of this test.
inactive

GET /call?item= COc1nc(N)nc2c1ncn2[C@@H]1O[C@H](CO)[C@@H](O)[C@@H]1O returns the recorded outcome of this test.
inactive

GET /call?item= CCOC(=O)c1ccc(OC(=O)CCCCCN=C(N)N)cc1 returns the recorded outcome of this test.
inactive

GET /call?item= CC(C)(C#N)c1cc(Cn2cncn2)cc(C(C)(C)C#N)c1 returns the recorded outcome of this test.
inactive

----------
# assay-remarks: Quantitative High-Throughput drug screen in 47 multiple myeloma cell lines against the NCATS MIPE library collection: KMS28PE_JCRB cell viability assay (AID 1918983); note: nearly all actives have a fitted effect of over 35% in size
# experimental-conditions: KMS28PE multiple myeloma viability, CellTiter-Glo ATP, 48 h; series mostly up to 45.8 µM
Results filed as inconclusive are left out. Calls of active or inactive are those of the source. The call rests on the fitted dose curve; in most records, active means well fitted cell-killing curve with a large enough effect; inconclusive means small, poorly fitted or top-dose-only effect, or effect the other way; inactive means no such curve, though single readings can be large or run the other way.
Your reply should match one of these outcome classes. 1 (active), -1 (inactive)

CC(=O)[C@H]1CC[C@H]2[C@@H]3CCC4=CC(=O)CC[C@]4(C)[C@H]3CC[C@]12C = -1
CCN(CC)CCn1c(=O)c(Cc2ccc(OC)cc2)nc2ccccc21 = -1
CO[C@@]12[C@H](COC(N)=O)C3=C(C(=O)C(C)=C(N)C3=O)N1C[C@@H]1N[C@@H]12 = 1
C[C@@H](NCCCc1cccc(C(F)(F)F)c1)c1cccc2ccccc12 = -1
NC(N)=NC(N)=NCCc1ccccc1 = 1
CS(=O)(=O)c1ccc([C@@H](O)[C@@H](CO)NC(=O)C(Cl)Cl)cc1 = -1

GET /call?item= CC[C@H](NC(C)C)[C@H](O)c1ccc(O)c2[nH]c(=O)ccc12 returns the recorded outcome of this test.
-1

GET /call?item= COc1c(N2CCNC(C)C2)c(F)cc2c(=O)c(C(=O)O)cn(C3CC3)c12 (configuration not stated) returns the recorded outcome of this test.
-1

GET /call?item= CNC(=O)c1cc(Oc2ccc(NC(=O)Nc3ccc(Cl)c(C(F)(F)F)c3)cc2)ccn1 returns the recorded outcome of this test.
1

GET /call?item= CC(C(=O)O)c1ccc2c(c1)CC(=O)c1ccccc1S2 (configuration not stated) returns the recorded outcome of this test.
-1

GET /call?item= CC1CC2C3CCC4=CC(=O)C=C[C@]4(C)[C@@]3(F)[C@@H](O)C[C@]2(C)[C@@]1(O)C(=O)CO (some centres not stated) returns the recorded outcome of this test.
1

GET /call?item= Cc1nnc(NS(=O)(=O)c2ccc(N)cc2)s1 returns the recorded outcome of this test.
1

GET /call?item= CCOC(=O)c1ccc(OC(=O)CCCCCN=C(N)N)cc1 returns the recorded outcome of this test.
-1

GET /call?item= Cc1onc(-c2ccccc2Cl)c1C(=O)N[C@@H]1C(=O)N2[C@@H]1SC(C)(C)[C@@H]2C(=O)O returns the recorded outcome of this test.
-1

GET /call?item= CCCN[C@H]1CCc2nc(N)sc2C1 returns the recorded outcome of this test.
-1

----------
# assay-remarks: qHTS to identify inhibitors of the type 1 interferon - major histocompatibility complex class I in skeletal muscle: primary screen against the NCATS Pharmaceutical Collection (AID 1347407);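 note: luminescence of HiBiT knocked into endogenous HLA-B as interferon-induced MHC class I level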
# experimental-conditions: human skeletal muscle cells, IFN-b-induced MHC-I HiBiT luminescence, 24 h; series mostly up to 45.9 µM
Records with an inconclusive call do not appear. The source made the active and inactive calls. The call rests on the fitted dose curve; in most records, active means well fitted inhibition curve with a large enough effect; inconclusive means small, poorly fitted or top-dose-only effect; inactive means flat fitted curve, though single readings scatter.
readout-type: outcome

Cc1nnc(NS(=O)(=O)c2ccc(N)cc2)s1 = inactive
NC(=O)N1c2ccccc2CC(=O)c2ccccc21 = inactive
CC[C@H](NC(C)C)[C@H](O)c1ccc(O)c2[nH]c(=O)ccc12 = inactive
NNC(=O)c1ccncc1 = inactive
Cc1nnc(C(=O)NC(C)(C)c2nc(C(=O)NCc3ccc(F)cc3)c(O)c(=O)n2C)o1 = inactive

Now look at this entry.
Sample O=c1cc(O)c(Cl)c[nH]1 ; outcome observed: inactive

----------
# assay-remarks: Quantitative High-Throughput drug screen in 47 multiple myeloma cell lines against the NCATS MIPE library collection: MM1S_ATCC cell viability assay (AID 1918980); note: nearly all actives have a fitted effect of over 45% in size
# experimental-conditions: MM1S myeloma viability, CellTiter-Glo ATP luminescence, 48 h; series mostly up to 45.8 µM
Records with an inconclusive call do not appear. Active and inactive are the calls of the source. The call rests on the fitted dose curve; in most records, active means well fitted cell-killing curve with a large enough effect; inconclusive means small, poorly fitted or top-dose-only effect, or effect the other way; inactive means no such curve, though single readings can be large or run the other way.
Your reply should match one of these outcome classes. active, inactive

Please review the following examples before continuing.
C[C@@H]1CN(c2c(F)c(N)c3c(=O)c(C(=O)O)cn(C4CC4)c3c2F)C[C@H](C)N1 = inactive
CN1CCN(c2c(F)cc3c(=O)c(C(=O)O)cn4c3c2OCN4C)CC1 = inactive
CCCc1nc(C)c2c(=O)[nH]c(-c3cc(S(=O)(=O)N4CCN(CC)CC4)ccc3OCC)nn12 = active
NC(N)=NC(N)=NCCc1ccccc1 = active

As a next step, examine the compound that follows.
GET /call?item= CN(CCOc1ccc(CC2SC(=O)NC2=O)cc1)c1ccccn1 (stereo not given) returns the recorded outcome of this test.
active

----------
# assay-remarks: qHTS of pediatric cancer cell lines to identify multiple opportunities for drug repurposing: Confirmatory screen for SK-N-SH cells (AID 1347129);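 note: cells exposed to compound for 48 h before viability read; nearly all actives have a fitted effect of over 60% in size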; note: potency is the fitted concentration of half-maximal effect
# experimental-conditions: SK-N-SH neuroblastoma cell viability; series mostly up to 46.1 µM
Records with an inconclusive call do not appear. The source made the active and inactive calls. Calls come from the whole dose curve; as a rule, active = well fitted cell-killing curve with a large enough effect; inconclusive = small, poorly fitted or top-dose-only effect; inactive = flat fitted curve, though single readings scatter.
readout-type: Potency

Known results for compounds:
CN1CCCC(n2nc(Cc3ccc(Cl)cc3)c3ccccc3c2=O)CC1 (configuration not stated) = 20.9 µM (active)
N=C(N)c1ccc(OCCCCCOc2ccc(C(=N)N)cc2)cc1 = inactive
CS(=O)(=O)c1ccc([C@@H](O)[C@@H](CO)NC(=O)C(Cl)Cl)cc1 = inactive
CC(C(=O)O)c1ccc2c(c1)CC(=O)c1ccccc1S2 (configuration not stated) = inactive
O=NN(CCCl)C(=O)NC1CCCCC1 = inactive

Sample O=C(NCC1CN(c2ccc(N3CCOCC3=O)cc2)C(=O)O1)c1ccc(Cl)s1 (configuration not stated) ; Potency observed: inactive

Sample Nc1nc(N)c2nc(CNc3ccc(C(=O)NC(CCC(=O)O)C(=O)O)cc3)cnc2n1 (configuration not stated) ; Potency observed: inactive

Sample CO[C@@]12[C@H](COC(N)=O)C3=C(C(=O)C(C)=C(N)C3=O)N1C[C@@H]1N[C@@H]12 ; Potency observed: 14.8 µM (active)

Sample CC(C)(C)C(=O)OCOP(=O)(COCCn1cnc2c(N)ncnc21)OCOC(=O)C(C)(C)C ; Potency observed: inactive

Sample CN(C)c1ccc(C(=C2C=CC(=[N+](C)C)C=C2)c2ccc(N(C)C)cc2)cc1 ; Potency observed: 1.32 µM (active)

Sample O=S(=O)(O)CCS ; Potency observed: inactive

Sample COc1ccc(C(=O)CC(=O)c2ccc(C(C)(C)C)cc2)cc1 ; Potency observed: inactive

----------
# Tested on: CP203
# assay-remarks: qHTS profiling for inhibitors of Plasmodium falciparum proliferation (AID 504749); note: nearly all actives have a fitted effect of over 60% in size
# experimental-conditions: P. falciparum in erythrocytes, SYBR Green DNA, 72 h; series mostly up to 28.7 µM
Records with an inconclusive call do not appear. The source made the active and inactive calls. Calls come from the whole dose curve; as a rule, active = well fitted inhibition curve with a large enough effect; inconclusive = small, poorly fitted or top-dose-only effect; inactive = flat fitted curve, though single readings scatter.
Your reply should match one of these outcome classes. active, inactive

GET /call?item= COc1ncnc(NS(=O)(=O)c2ccc(N)cc2)c1OC returns the recorded outcome of this test.
inactive

GET /call?item= COc1cc([C@@H]2c3cc4c(cc3[C@H](O)[C@H]3COC(=O)[C@H]23)OCO4)cc(OC)c1OC returns the recorded outcome of this test.
active

GET /call?item= CCCN[C@H]1CCc2nc(N)sc2C1 returns the recorded outcome of this test.
inactive

GET /call?item= CCc1c2c(nc3ccc(OC(=O)N4CCC(N5CCCCC5)CC4)cc13)-c1cc3c(c(=O)n1C2)COC(=O)[C@]3(O)CC returns the recorded outcome of this test.
inactive

GET /call?item= CCCc1nc(C)c2c(=O)[nH]c(-c3cc(S(=O)(=O)N4CCN(CC)CC4)ccc3OCC)nn12 returns the recorded outcome of this test.
inactive
